# Study target: T1, RSV F B K68N-N201S (RSV B)
# T1 construct: whole, on cells
# Protocol notes: FACS, % binding to RSV F B variants
Here the recorded % binding is given for each entry.
Note: unit % is implicit; provide only the numeric part.

Worked cases, answers included:
>>> recorded_measurement("MPK190-v1.3-rIgG1m17,1-LS (antibody, V domains shown) VH: QVQLVESGGGLVKPGGSLTLSCAASGFSISGYGMNWVRQAPGRGLEWVASISASSTYIYYADSMKGRFTISRDNGKTSLYLQMKSLRAEDTAVYYCARAPIEPPYFDLWGRGTLVTVSS VL: QSVLTQPPSVSGAPGQRVTISCTGSSSNIGAGYDVHWYQHLPGKAPKVLIYGNTNRPSVVPDRFSGSNSGASASLAISGLQAEDEADYFCQSYDRRLSGPIFGGGTKLTVLG")
63.3
>>> recorded_measurement("MPK176-v1.3 (antibody, V domains shown) VH: QVQLVQSGAEVKKPGASVRVSCKASGYTLTAYGISWVRQAPGQGLEWMGWISPKHGNTHYAQRFQGRVTMTTDTSTSTAYMELRSLRPDDTAVYFCAREGVDIMAVPWYFDYWGQGTLVAVSS VL: SYVLTQPPSVSVAPGQTARISCGGNNIGSKSVHWYQQKPGQAPVVVVYDDSKRPSGIPERFSGSNSGNTATLTISGVEAGDEADYFCQVWDSATDHWVFGGGTKLTVL")
60
>>> recorded_measurement("MPK176-v4.3 (antibody, V domains shown) VH: QVQLVQSGAEVKKPGASVRVSCKASGYTLTAYGISWVRQAPGQGLEWMGWISPKHGSTHYAQRFQGRVTMTTDTSTSTAYMELRSLRPDDTAVYFCAREGVDIMAVPWYFDYWGQGTLVAVSS VL: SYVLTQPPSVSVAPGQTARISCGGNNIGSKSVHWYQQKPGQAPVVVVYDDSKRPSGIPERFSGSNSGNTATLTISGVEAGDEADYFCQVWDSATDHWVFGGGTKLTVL")
60.4
>>> recorded_measurement("MPK65-v2-v1.2 (antibody, V domains shown) VH: QVPLVQSGAEVKKPGESLKISCKGSGYSFINYWIGWVRQMPGKGLEWMGVIYPFDSDTKYSPSFQGHVTISADKSSNTAYVQWSSLKASDTAMYYCARFTFGIAVVTDDVSGEGQAFEIWGQGTMVTVSS VL: QIVMMQSPATLSVSPGERATLSCRASQSVAGNLAWYQQRPGQAPRLLIYGASTRATGVPARFSGSGSETEFTLTISSLQSEDFAVYYCHQYSNLPQAFGQGTRLDIK")
30.8
>>> recorded_measurement("MPK201-v4.1 (antibody, V domains shown) VH: QVQLVQSGAEVKKPGESLKISCQGSGYSFISYWIGWVRQKPGKGLEWMGIIYPFDSETKYSPSFQGHVTFSADKSINTAYVQWSSLRASDTAMYYCARFTFGLAVTTADVSGEGQAFEIWGQGTMVTVSS VL: EIVMMQSPATLSVSPGERATLSCRASQSVAGNLAWYQQRPGQAPRLLVYGASTRASGVPARFSGSGSETEFTLTISSLQSEDFAVYYCHHYSDWPQAFGQGTRLDIK")
30

Moving on to the next binder.
The binder listed as MPK65-v2-v3.1 (antibody, V domains shown) VH: QVPLVQSGAEVKKPGESLKISCKGSGYSFISYWIGWVRQMPGKGLEWMGVIYPFDADTKYSPSFQGHVTISADKSSNTAYVQWSSLKASDTAMYYCARFTFGIAVVTDDVSGEGQAFEIWGQGTMVTVSS VL: EIVMMQSPATLSVSPGERATLSCRASQSVAGNLAWYQQRPGQAPRLLIYGASTRATGVPARFSGSGSETEFTLTISSLQSEDFAVYYCHQYSNWPQAFGQGTRLDIK shows % binding equal to 22.6
